Recorded Luciferase Efficacy (in parenthesis) for the following molecules
target.or.test.system: Photinus pyralis (firefly) luciferase (Photinus pyralis)
Sequence (P08659 whole entry): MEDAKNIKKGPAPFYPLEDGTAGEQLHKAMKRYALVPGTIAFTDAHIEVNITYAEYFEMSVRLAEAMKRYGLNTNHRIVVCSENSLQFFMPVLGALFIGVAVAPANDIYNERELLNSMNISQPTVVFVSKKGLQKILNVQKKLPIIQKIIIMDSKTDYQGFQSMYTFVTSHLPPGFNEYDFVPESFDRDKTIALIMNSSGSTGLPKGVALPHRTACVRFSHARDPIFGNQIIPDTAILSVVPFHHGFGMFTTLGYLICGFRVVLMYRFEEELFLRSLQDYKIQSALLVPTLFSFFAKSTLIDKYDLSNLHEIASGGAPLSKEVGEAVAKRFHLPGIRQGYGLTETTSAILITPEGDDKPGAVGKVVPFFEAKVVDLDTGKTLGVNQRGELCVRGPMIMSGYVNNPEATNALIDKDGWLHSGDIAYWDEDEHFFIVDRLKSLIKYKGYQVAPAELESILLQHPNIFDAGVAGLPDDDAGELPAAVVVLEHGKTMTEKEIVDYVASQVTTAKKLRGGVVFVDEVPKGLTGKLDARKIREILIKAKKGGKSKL
test.name: biochemical
Assay type: biochemical

| molecule | target.or.test.system | endpoint.result |
| --- | --- | --- |
| CC(=O)c1ccc2ccc3ccccc3c2c1 | Photinus pyralis (firefly) luciferase (Photinus pyralis) | 32.81 ± 2.22 (-56 ± 6) % |
| Cc1ccc([N+](=O)[O-])[c]2c1[O][Hg]2 | Photinus pyralis (firefly) luciferase (Photinus pyralis) | 12.48 ± 4.81 (-100 ± 9) % |
| Oc1cc2ccccc2c2ccccc12 | Photinus pyralis (firefly) luciferase (Photinus pyralis) | 71.29 ± 8.19 (-61 ± 21) % |
| CCOP(=O)([O-])OCC.CCn1cc[n+](C)c1 | Photinus pyralis (firefly) luciferase (Photinus pyralis) | 86.36 ± 7.02 (-39 ± 30) % |
| O=C(Nc1ccccc1SSc1ccccc1NC(=O)c1ccccc1)c1ccccc1 [2,2'-Dibenzoylaminodiphenyl disulfide] | Photinus pyralis (firefly) luciferase (Photinus pyralis) | 3.42 ± 1.53 (-57 ± 5) % |
| COP(=S)(OC)SCn1nnc2ccccc2c1=O | Photinus pyralis (firefly) luciferase (Photinus pyralis) | 47.70 ± 13.48 (-40 ± 2) % |
| CC(=O)[O-].CC(=O)[O-].[Hg+2] [Mercury(II) acetate] | Photinus pyralis (firefly) luciferase (Photinus pyralis) | 6.84 ± 0.45 (-85 ± 7) % |
| CCCCCCCCCCCCCCCCCC(=O)O.OCCN(CCO)CCO [Triethanolamine stearate] | Photinus pyralis (firefly) luciferase (Photinus pyralis) | 74.82 ± 6.08 (-26 ± 14) % |
| O=S(=O)(Oc1ccc(Cl)cc1)c1ccccc1 | Photinus pyralis (firefly) luciferase (Photinus pyralis) | 76.75 ± 5.00 (-30 ± 10) % |
| Cn1ccc2cc3c(cc21)CCN3C(=O)Nc1cccnc1 | Photinus pyralis (firefly) luciferase (Photinus pyralis) | 4.77 ± 1.70 (-73 ± 12) % |

Continue with the molecule presented below.
**Query** Any idea what its Luciferase Efficacy (in parenthesis) is? The molecule is O=C1CCCc2c1cc1ccc3cccc4ccc2c1c34 [9,10-Dihydrobenzo[a]pyren-7(8H)-one]
**Result** 9.87 ± 1.68 (-53 ± 7) %
